tested on: Hemophilus influenza; test: In vitro antibacterial activity, agar dilution method (clinical isolates); assay type: cell-based; conditions: clinically isolated strains, Gram-negative, agar dilution; read-out: MIC90 Hemophilus influenza
Give measured MIC90 for each item. Keep answers brief.
Field: numeric (µg/mL). Do not append units.

Look up MIC90: C[C@@H](O)[C@H]1C(=O)N2C(C(=O)O)=C(SC3CCCN(S(N)(=O)=O)C3)[C@H](C)[C@H]12 (stereo partly drawn) 0.25

Param item: "C[C@@H](O)[C@H]1C(=O)N2C(C(=O)O)=C(SC3CN(S(=O)(=O)N(C)C)C3)[C@H](C)[C@H]12" 0.25

Param item: C[C@@H](O)[C@H]1C(=O)N2C(C(=O)O)=C(SC3CNCN(S(N)(=O)=O)C3)[C@H](C)[C@H]12 (stereo partly drawn) 0.125

Param item: C[C@@H](O)[C@H]1C(=O)N2C(C(=O)O)=C(SC3CN=CN(S(N)(=O)=O)C3)[C@H](C)[C@H]12 (stereo partly drawn) 0.125

Param item: C[C@@H](O)[C@H]1C(=O)N2C(C(=O)O)=C(S[C@@H]3CN[C@H](C(=O)N(C)C)C3)[C@H](C)[C@H]12 [meropenem, Meropenem, reference compound] 0.25

Param item: C[C@@H](O)[C@H]1C(=O)N2C(C(=O)O)=C(S[C@@H]3CN[C@H](C(=O)Nc4cccc(C(=O)O)c4)C3)[C@H](C)[C@H]12 [ertapenem, Ertapenem, reference compound] 1

Param item: "C[C@@H](O)[C@H]1C(=O)N2C(C(=O)O)=C(SC3CN(S(=O)(=O)NCC(N)=O)C3)[C@H](C)[C@H]12" 0.125

Param item: "CCCCN(CCCC)S(=O)(=O)N1CC(SC2=C(C(=O)O)N3C(=O)[C@H]([C@@H](C)O)[C@H]3[C@H]2C)C1" 0.125

Param item: "CCN(CC)S(=O)(=O)N1CC(SC2=C(C(=O)O)N3C(=O)[C@H]([C@@H](C)O)[C@H]3[C@H]2C)C1" 0.125
